Where these numbers come from: ChEMBL document CHEMBL1201862

biological target: Caspase-3 (Homo sapiens, UniProt P42574); assay type: functional;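 note: Dose-response selectivity test against caspase-3 for candidate inhibitors of sentrin-specific proteases (SENPs)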
Sequence (P42574 29-175 limits assumed): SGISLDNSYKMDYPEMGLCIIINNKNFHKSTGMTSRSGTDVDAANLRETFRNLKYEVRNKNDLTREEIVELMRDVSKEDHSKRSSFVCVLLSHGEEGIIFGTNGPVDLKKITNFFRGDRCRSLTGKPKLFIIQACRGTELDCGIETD
Sequence (P42574 176-277 limits assumed): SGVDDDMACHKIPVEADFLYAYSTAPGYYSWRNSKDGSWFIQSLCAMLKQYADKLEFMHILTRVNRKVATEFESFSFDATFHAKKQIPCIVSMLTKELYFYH
The source made the active and inactive calls.
Reported IC50 is given for each of the following molecules.

Observe how each entry below is paired with its result.
**Q:** Provide value of IC50 for this record tested with Caspase-3 (Homo sapiens, UniProt P42574): `COc1ccc(OC)c(Nc2cc3ccccc3c(O)n2)c1`
**A:** 1.88 µM (active)

**Q:** For `O=C(O)c1ccc(NC2=C/C(=N/S(=O)(=O)c3ccccc3)c3ccccc3C2=O)cc1` then?
**A:** 4.5 µM (active)

---
**Q:** Provide value of IC50 for this record tested with Caspase-3 (Homo sapiens, UniProt P42574): `Cc1ccc(-n2cc3ccc([N+](=O)[O-])cc3n2)cc1`
**A:** 34.7 µM (active)

---

Reported EC50 is given for each of the following compounds.
target: Streptokinase A (Streptococcus pyogenes serotype M1, UniProt P10520); experiment: viability-normalized secreted streptokinase activity reduction – plasminogen activation absorbance, OD405, dose response (AID 1914); format: functional, Streptococcus pyogenes M1 GAS;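 note: secreted streptokinase activity via plasminogen activation per viability signal from cell pellet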
Sequence (P10520 whole entry): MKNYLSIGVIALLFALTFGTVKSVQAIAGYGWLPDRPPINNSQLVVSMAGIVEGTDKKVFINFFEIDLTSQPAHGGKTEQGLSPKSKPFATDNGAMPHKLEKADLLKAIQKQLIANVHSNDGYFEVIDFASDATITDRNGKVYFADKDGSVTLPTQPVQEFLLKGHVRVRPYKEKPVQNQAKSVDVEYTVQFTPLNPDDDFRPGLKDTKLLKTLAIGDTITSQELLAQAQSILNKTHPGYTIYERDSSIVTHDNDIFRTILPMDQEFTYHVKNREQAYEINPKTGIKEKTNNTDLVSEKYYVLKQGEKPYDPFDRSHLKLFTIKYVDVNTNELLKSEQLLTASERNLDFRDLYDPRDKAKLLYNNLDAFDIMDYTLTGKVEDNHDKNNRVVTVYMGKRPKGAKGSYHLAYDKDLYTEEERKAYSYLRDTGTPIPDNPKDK
The source made the active and inactive calls.

Observe how each entry below is paired with its result.
**Q:** Name the reported EC50 value associated with the compound CCC1C(=NO)C(CC)C(c2ccccc2)NC1c1ccccc1 (configuration not stated)
**A:** 13.3 µM (active)

**Q:** For `N#CC(C#N)=NNc1ccc([N+](=O)[O-])cc1` then?
**A:** > 150 µM (not active)

---
**Q:** Name the reported EC50 value associated with the compound `Cc1cccc(C)c1NC(=S)N/N=C/c1ccc(OCCC(C)C)cc1`
**A:** 16.9 µM (active)

**Q:** For `CCOC(=O)c1ccc(NC(=O)c2nc(S(=O)(=O)Cc3ccccc3)ncc2Cl)cc1` then?
**A:** 2.11 µM (active)

---

molecular target: Cytochrome P450 3A4 (Homo sapiens);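 note: CYP3A4 tested as one member of a cytochrome P450 panel screen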
Sequence (P08684 whole entry): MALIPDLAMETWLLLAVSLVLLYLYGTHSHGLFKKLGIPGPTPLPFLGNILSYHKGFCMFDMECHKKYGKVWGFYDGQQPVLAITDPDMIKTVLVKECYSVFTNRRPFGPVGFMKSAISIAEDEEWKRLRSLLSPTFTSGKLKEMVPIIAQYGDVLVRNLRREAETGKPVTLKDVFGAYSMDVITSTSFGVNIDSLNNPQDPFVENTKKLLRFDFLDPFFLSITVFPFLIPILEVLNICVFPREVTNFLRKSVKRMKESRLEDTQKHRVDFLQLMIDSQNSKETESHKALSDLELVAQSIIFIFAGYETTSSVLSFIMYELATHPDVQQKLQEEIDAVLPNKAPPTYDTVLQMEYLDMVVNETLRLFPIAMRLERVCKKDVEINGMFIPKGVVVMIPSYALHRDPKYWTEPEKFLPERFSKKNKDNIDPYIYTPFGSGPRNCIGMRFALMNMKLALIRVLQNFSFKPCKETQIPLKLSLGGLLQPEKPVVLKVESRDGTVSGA
Test readout: AC50

Observe how each entry below is paired with its result.
**Q:** Name the reported AC50 value associated with the compound `CCSc1nnc2n(N)c(=O)c3ccccc3n12`
**A:** 15.8 µM (inconclusive)

**Q:** For `CC(=O)Nc1ccc(NC(=O)CSc2ncnn2-c2ccccc2)cc1` then?
**A:** 28.2 µM (inconclusive)

---
**Q:** Name the reported AC50 value associated with the compound O=C(CC(c1ccccc1)c1ccccc1)NCC1CCCO1 (stereo not drawn)
**A:** 22.4 µM (inconclusive)

**Q:** For `Cc1nc2cnc(N3CCN(C)CC3)nc2n(CCc2ccccc2)c1=O` then?
**A:** 15.8 µM (inconclusive)

**Q:** For `Cc1cccc(NC(=O)c2cc(=O)c3ccccc3o2)n1` then?
**A:** 25.1 µM (inconclusive)

**Q:** For `C=CCNC(=O)c1onc(CSc2ccc(F)cc2)c1C(=O)O` then?
**A:** 22.4 µM (inconclusive)

**Q:** For `Cn1cccc1C(=O)N1CCC2(CCN(Cc3ccncc3)CC2)CC1` then?
**A:** 12.6 µM (inconclusive)

**Q:** For `CC(=O)OC[C@@H]1O[C@H](C/C=N\OCC[C@H]2C=C[C@H](OC(C)=O)[C@@H](COC(C)=O)O2)C=C[C@@H]1OC(C)=O` then?
**A:** 3.16 µM (inconclusive)

---

biological target: Cytochrome P450 2C9 (Homo sapiens, UniProt P11712)
Sequence (P11712 whole entry): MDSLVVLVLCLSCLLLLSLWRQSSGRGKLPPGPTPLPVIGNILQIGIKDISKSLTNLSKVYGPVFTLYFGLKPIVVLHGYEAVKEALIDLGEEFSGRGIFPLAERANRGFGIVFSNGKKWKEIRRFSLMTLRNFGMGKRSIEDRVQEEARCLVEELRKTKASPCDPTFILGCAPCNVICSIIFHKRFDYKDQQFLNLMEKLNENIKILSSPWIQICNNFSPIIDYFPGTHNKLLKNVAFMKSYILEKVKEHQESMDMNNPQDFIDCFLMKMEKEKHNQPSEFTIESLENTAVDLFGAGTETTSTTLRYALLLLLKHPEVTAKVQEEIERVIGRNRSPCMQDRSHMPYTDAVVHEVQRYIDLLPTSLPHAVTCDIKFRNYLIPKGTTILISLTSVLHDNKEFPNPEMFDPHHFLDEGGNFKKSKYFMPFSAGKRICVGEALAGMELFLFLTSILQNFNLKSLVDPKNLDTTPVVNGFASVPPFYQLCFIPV
Test readout: AC50

Observe how each entry below is paired with its result.
**Q:** Name the reported AC50 value associated with the molecule `O=c1cnc2cnc(N3CCNCC3)nc2n1Cc1ccc(F)cc1`
**A:** 20 µM (inconclusive)

**Q:** For `CC(C)(Oc1ccc(-c2cccc3ccccc23)cc1)C(=O)O` then?
**A:** 0.398 µM (inconclusive)

**Q:** For `COc1ccc2[nH]cc(CCNc3cc(-c4ccccc4C(F)(F)F)ncn3)c2c1` then?
**A:** 1 µM (inconclusive)

**Q:** For `COc1ccc(/C=N/NC(=O)CCCC(=O)NC2CCCCC2)cc1` then?
**A:** 10 µM (inconclusive)

**Q:** For CCCS(=O)(=O)N1CCCC(C(=O)N2CCN(c3ccccc3)CC2)C1 (configuration not stated) then?
**A:** 14.1 µM (inconclusive)

---
**Q:** Name the reported AC50 value associated with the molecule `CCOc1c2ccc(C(=O)NCc3ccco3)cc2nn1CC`
**A:** 10 µM (inconclusive)

**Q:** For `CN1CC[C@]2(C)c3cc(O)ccc3N(C)[C@@H]12` then?
**A:** 12.6 µM (inconclusive)
